Measured apparent KD of MS2 coat protein, listed per entry for reference.
Tested on: MS2 coat protein
EXPERIMENTAL DETAILS: apparent KD of MS2 coat protein; higher = weaker reporter binding
MEASUREMENT PARAMETERS: Eterna round: R107; input ligand: theophylline 20 uM
OBSERVED PROPERTY: apparent KD of MS2 coat protein (nM)

INSERT INTO results (residue_string, target_or_test_system, meas_value) VALUES
  ('UCGGACAUGAGGAUCACCCAUGUAAAUCCUCGAGGACCGGUACGGCCGCCACUCGAACGAGUGGCGCGCGAGUGCGCACUCGCGC [aFa]', 'MS2 coat protein', 57.9),
  ('GGUUACUCUACGGCCGCCACUGUAAUGUAAAGAUACCUGUACAUGACAUGAGGAUCACCCAUGUGCAGGACCGGGUAGUGUAACC [Tryptophan B 19]', 'MS2 coat protein', 93.6),
  ('GGAUAGGACACGGCCGCCACUACCUAGGAUACUAGCAACAUUUGGGUAUAUGAGGAUCACCCAUAUAGGACCGGGUGUCCUAUCG', 'MS2 coat protein', 88),
  ('UGUAUGGACUGAAGGAGCGGGUAAUAAACCUGAGGAUCACCCAGGUAAUAGGCGAAAGCCGCCCAGGUAGGUCGCAGUCCAUACU', 'MS2 coat protein', 13.7),
  ('GGCCCGGACUUGGAAUGGGUGUUUCCCUCACGAGGACCGGUACGGCCGCCACUCGAAGACAUGAGGAUCACCCAUGUAGUCGACA [Qudirate]', 'MS2 coat protein', 78);

Source listed as the supplement of paper PMC9170038.
